Origin of measurements: patent US20230122503A1

assay-target: T1, PSMW39, human PSMA ECD (Lys44-Ala750), N-6xHis (human, UniProt Q04609 44-750)
T1 construct: Made in Expi-CHO cells; also called PSMW39.002; recombinant human ECD
T1 sequence (Q04609 other isoform, or with tags, fused parts or gaps): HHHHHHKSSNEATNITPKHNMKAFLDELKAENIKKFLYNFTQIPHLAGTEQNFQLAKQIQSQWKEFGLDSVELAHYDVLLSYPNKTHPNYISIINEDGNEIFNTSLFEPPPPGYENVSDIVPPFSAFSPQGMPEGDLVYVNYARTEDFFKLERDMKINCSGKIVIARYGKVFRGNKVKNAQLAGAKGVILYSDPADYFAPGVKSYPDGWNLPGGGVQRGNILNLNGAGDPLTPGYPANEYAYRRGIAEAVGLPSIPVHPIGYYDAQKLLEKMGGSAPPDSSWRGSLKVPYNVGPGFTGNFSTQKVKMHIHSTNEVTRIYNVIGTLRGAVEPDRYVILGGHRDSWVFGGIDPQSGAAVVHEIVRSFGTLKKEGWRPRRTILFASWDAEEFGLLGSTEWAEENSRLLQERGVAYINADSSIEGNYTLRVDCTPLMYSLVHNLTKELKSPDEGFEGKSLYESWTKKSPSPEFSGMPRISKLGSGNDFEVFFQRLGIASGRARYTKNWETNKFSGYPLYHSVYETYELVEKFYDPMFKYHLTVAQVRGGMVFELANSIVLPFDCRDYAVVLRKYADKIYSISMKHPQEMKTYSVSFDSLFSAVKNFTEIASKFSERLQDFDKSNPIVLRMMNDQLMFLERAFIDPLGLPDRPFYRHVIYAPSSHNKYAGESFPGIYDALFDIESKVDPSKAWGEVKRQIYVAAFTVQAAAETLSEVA
measurement-protocol: SPR (Biacore 8K), antibody captured on goat anti-Fc C1 chip, PSMA ECD as analyte, 1:1 Langmuir fit
endpoint: Kd (nM)
The reply should contain only the number, in nM.

Recorded Kd, per entry:
{"columns": ["binder", "Kd / nM"],
 "data": [
  ["PSMB1154 (antibody, human IgG1, lambda, V domains shown, huIgG1, lambda light chain) VH: EVQLVESGGGEVQPGRSLRLTCAVSGFTLSRYGMHWVRQAPGKGLEWAALISYDGSNRYYADSVKGRFTISRDNSKNTVFLQMNSLRAEDTAVYYCARERESSGWFEGYFDYWGQGTTVTVSS VL: QLVLTQPPSVSVAPGQTARITCGGNNIGSKSVHWYQQKPGQAPVLVVYDNSDRPSGIPERFSGSNSGNTATLTISRVEVGDEADYYCQVWDSSSDHVVFGGGTKLTVLG", 1.09],
  ["PSMB1195 (antibody, human IgG1, kappa, V domains shown, huIgG1, kappa light chain) VH: EVQLVESGGGLVKPGGSLRLSCAASGFTFSSYSLNWVRQAPGKGLEWVSSISSSSSYISYADAVKGRFTISRDNAKNSLYLQMNSLRAEDTAVYYCARDRGFLEDYYYYYGMDVWGQGTTVTVSS VL: DIVMTQSPSSVSASVGDRVTITCRASQGISNWLAWYQQKPGKAPKLLIYVASSLQSGVPSRFSGSGSGTDFSLTISSLQPEDFATYYCQQAYSFPLTFGGGTKVEIKR", 9.45]
]}

Kindly review the next binder as well.
Please give the documented Kd of PSMB1113 (antibody, human IgG1, kappa, V domains shown, huIgG1, kappa light chain) VH: EVQLVESGGGLVKPGGSLRLSCAASGFTLSIYSMNWVRQAPGKGLEWVSSISSSSSYIFYADSVKGRFTISRDNAKNSLFLQMNSLRAEDTAVYYCARSSYGADYWGQGTLVTVSS VL: EIVMTQSPSSLSASVGDRVTITCRASQDITNFLAWYQQKPGKVPKLLIYTASTLQSGVPSRFSGSGSGTDFTLTISSLQPEDVATYYCQKYNSAPLTFGGGTKLEIKR 1.16
